# pIC50 per entry
assay.system: pneumolysin (Ply) (Streptococcus pneumoniae serotype 2)
Construct: made in house; host or cells: E. coli BL21(DE3)
Sequence (Q04IN8 whole entry): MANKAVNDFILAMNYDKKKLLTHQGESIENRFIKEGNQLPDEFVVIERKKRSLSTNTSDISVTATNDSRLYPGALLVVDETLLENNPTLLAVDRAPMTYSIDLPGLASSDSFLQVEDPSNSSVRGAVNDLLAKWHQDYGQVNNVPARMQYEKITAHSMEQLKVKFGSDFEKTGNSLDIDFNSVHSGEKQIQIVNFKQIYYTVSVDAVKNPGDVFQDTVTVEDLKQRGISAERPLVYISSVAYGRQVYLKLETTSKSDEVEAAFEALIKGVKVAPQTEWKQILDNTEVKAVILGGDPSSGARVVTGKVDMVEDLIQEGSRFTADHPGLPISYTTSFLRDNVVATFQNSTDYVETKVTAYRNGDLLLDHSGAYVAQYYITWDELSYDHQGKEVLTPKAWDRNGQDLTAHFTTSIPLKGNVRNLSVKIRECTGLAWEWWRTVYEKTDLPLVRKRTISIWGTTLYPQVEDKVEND
protocol.notes: cell-based
Format: cell-based
protocol.conditions: IC50 (screening with hemolysis assays), estimated from the inhibition curves, two-fold dilutions of tannins
pIC50: −log10 of the molar value.
readout.name: pIC50

[
  {
    "compound": "O=C(O[C@H]1[C@@H]2OC(=O)c3cc(O)c(O)c(O)c3-c3c4cc(c(O)c3O)Oc3c(cc(O)c(O)c3O)C(=O)O[C@H]3C(O)O[C@@H]5COC(=O)c6cc(O)c(O)c(O)c6-c6c(cc(c(O)c6O)Oc6c(cc(O)c(O)c6O)C(=O)O[C@H]1C(O)O[C@@H]2COC4=O)C(=O)O[C@H]5[C@@H]3OC(=O)c1cc(O)c(O)c(O)c1)c1cc(O)c(O)c(O)c1 (stereo partly drawn) [Oenothein B]",
    "assay.system": "pneumolysin (Ply) (Streptococcus pneumoniae serotype 2)",
    "numeric.value": 7.22
  },
  {
    "compound": "O=C(OC[C@H]1O[C@@H](OC(=O)c2cc(O)c(O)c(O)c2)[C@H](OC(=O)c2cc(O)c(O)c(O)c2)[C@@H](OC(=O)c2cc(O)c(O)c(O)c2)[C@@H]1OC(=O)c1cc(O)c(O)c(O)c1)c1cc(O)c(O)c(O)c1 [PGG, 1,2,3,4,6-penta-O-galloyl-β-D-glucose]",
    "assay.system": "pneumolysin (Ply) (Streptococcus pneumoniae serotype 2)",
    "numeric.value": 8.00
  },
  {
    "compound": "O=C(O[C@@H]1O[C@@H]2COC(=O)c3cc(O)c(O)c(O)c3-c3c(cc(O)c(O)c3O)C(=O)O[C@H]2[C@@H]2OC(=O)c3cc(O)c(O)c(O)c3-c3c(cc(O)c(O)c3O)C(=O)O[C@@H]12)c1cc(O)c(O)c(O)c1 [Casuarictin]",
    "assay.system": "pneumolysin (Ply) (Streptococcus pneumoniae serotype 2)",
    "numeric.value": 7.40
  }
]
